Molecular target: T1, cynomolgus mesothelin (cynomolgus)
T1 construct: also called cynoMSLN; Cyno MSLN
Assay: SPR
MEASURE: koff (s⁻¹)
Report as a plain number; the unit s⁻¹ is understood.

BINDER	TEST_RESULT
HuAb17 (antibody, V domains shown, fully human antibody) VH: EVQLVQSGAEVKEPGASVKVSCKASGDTFNRYYVHWARQAPGQGLEWMGIINPSGVSTTYAQKFQGRVTMTRDTPTNTVYMELGSLRPEDTAVYFCAESRGSGYNYFAMDVWGQGTLVTVSS VL: SYELTQPPSVSVSPGQTADITCSGDKLGDKYASWYQQKPGQSPVLVIYQDNRRPSGIPERFSGSNSGNTATLTISGTQAMDEADYYCQAWDSDTYVFGPGTKVTVL	0.00013

Prompt: # lookup: koff of HuAM17 (antibody, V domains shown, fully human antibody) VH: EVQLVQSGAEVKKPGASVKVSCKASGDTFNRYYVQWVRQAPGQGLEWMGIINPSGVSTTYAQKFQGRVTMTRDTSTSTVYMELSSLRSEDTAVYYCAESRVPGYNIFAMDVWGQGTLVTVSS VL: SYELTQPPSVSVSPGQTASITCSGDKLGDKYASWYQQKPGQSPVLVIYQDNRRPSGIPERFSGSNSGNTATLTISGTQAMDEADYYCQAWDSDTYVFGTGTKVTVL
Completion: 9.1e-05

Prompt: # lookup: koff of HuAM18 (antibody, V domains shown, fully human antibody) VH: EVQLVQSGAEVKKPGASVKVSCKASGDTFNRYYVHWVRQAPGQGLEWMGIINPSGVSTTYAQKFQGRVTMTRDTSTSTVYMELSSLRSEDTAVYYCAETRGSGYNYFGMDVWGQGTLVTVSS VL: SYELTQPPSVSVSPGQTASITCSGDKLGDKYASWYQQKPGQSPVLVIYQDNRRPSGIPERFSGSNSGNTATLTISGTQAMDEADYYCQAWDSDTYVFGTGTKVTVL
Completion: 0.00013
